# experimental target: D(2) dopamine receptor (Homo sapiens) (UniProt P14416)
# Sequence (P14416 whole entry, looked up): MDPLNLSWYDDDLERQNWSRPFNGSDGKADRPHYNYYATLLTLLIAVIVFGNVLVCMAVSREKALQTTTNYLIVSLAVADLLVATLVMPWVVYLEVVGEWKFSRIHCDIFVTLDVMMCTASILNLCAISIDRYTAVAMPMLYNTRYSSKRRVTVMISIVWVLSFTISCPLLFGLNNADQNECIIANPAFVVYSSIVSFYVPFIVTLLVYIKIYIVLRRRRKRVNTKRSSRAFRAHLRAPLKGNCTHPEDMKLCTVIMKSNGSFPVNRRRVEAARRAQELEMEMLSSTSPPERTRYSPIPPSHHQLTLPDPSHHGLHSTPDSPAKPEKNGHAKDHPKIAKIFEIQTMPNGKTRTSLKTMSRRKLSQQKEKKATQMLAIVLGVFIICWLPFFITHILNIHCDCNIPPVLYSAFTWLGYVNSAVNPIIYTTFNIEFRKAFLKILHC
# test details: Beta-Arrestin HTS for Positive Allosteric Modulators of the Human D2 Dopamine Receptor: Potentiators
# measurement setup: DiscoveRx D2 beta-arrestin cells, luminescence, 90 min; stronger effect = higher value; 100% = 57 uM dopamine signal
Out of some 360,000 compounds screened, about 810 (0.23%) were called active. The sample as a whole holds a higher share of actives than the screen did.
property measured: potentiation (%)

1. O=C(NCc1ccccc1)C(c1ccccc1)N(C(=O)c1csnn1)c1ccc(F)cc1 (stereo unspecified) :: 0.0815
2. O=C(O)c1ccc(NN=CC2=C(N3CCOCC3)/C(=C/c3ccccc3)CC2)cc1 :: 77.1
3. CC1(C)CC(=O)C=C(NCCN2CCNCC2)C1 :: -7.29
4. O=C(O)CCCC(=O)Nc1ccccc1-n1ccnc1 :: -9.58
5. CC(C)(C)S(=O)N1Cc2cc(C(=O)NCCCN3CCOCC3)nc(-c3cccc(-c4cc5ccccc5o4)c3)c2[C@H]1CCO (stereo partly specified) :: -2.56
6. Cc1coc2c(O)cc3c(c12)OC1(N2CCCCC2)C(=O)NCCCC31 (stereo unspecified) :: 70.8
7. O=C(CCc1ccccc1)Nc1ccc(NC(=O)C2CCCCC2)nc1 :: -8.09
8. O=C(COC(=O)c1cc(-c2cccs2)nn1-c1ccccc1)Nc1cc([N+](=O)[O-])ccc1Cl :: -0.407
9. CCNC(=O)C1(C)CCN(C(=O)c2ccccc2)C1 (stereo unspecified) :: -7.31
10. COC(=O)c1cc(Oc2ccc(S(=O)(=O)N3CCOCC3)cc2[N+](=O)[O-])cc(C(=O)OC)c1 :: -0.101
11. COc1cc(C(=S)N2CCOCC2)cc(OC)c1OC(=O)c1ccc([N+](=O)[O-])cc1[N+](=O)[O-] :: 136
12. CN(CC(=O)Nc1c(Cl)cccc1Cl)C(=O)CC1OC(=O)c2ccccc21 (stereo unspecified) :: -2.61
13. CC12CN3CCN(CC(C3)/C1=N\NC(=O)c1ccccc1N)C2 :: -0.591
14. COc1cccc(NC(=O)C2(C)CCN2C(=O)CCC2CCCC2)c1 (stereo unspecified) :: -1.05
15. CCCc1cc(=O)[nH]c2nnc(SCC(=O)Nc3nnc(SCC)s3)n12 :: -13.8
16. COCCCn1c(C(=O)NC2CCCCC2)cc2c(=O)n3cccc(C)c3nc21 :: -4.49
17. COc1ccc(CCNCc2c(-c3ccccc3)n(C)c3ccccc23)cc1 :: -20.4
18. COc1ccc(OC)c(S(=O)(=O)N2CCCC(C(=O)N3CCC(C(N)=O)CC3)C2)c1 (stereo unspecified) :: 7.76
19. Cc1ccc2cccc(OCCCOc3ccccc3CO)c2n1 :: -2.17
20. O=C1Nc2ccc(Br)cc2/C1=N/N=C/C1=C(N2CCOCC2)C(=C\c2ccccc2)/CC1 :: -26.8
21. CC(C)CCNC(=O)c1cccnc1Sc1ccccc1 :: -21.6

###

# experimental target: D(2) dopamine receptor (Homo sapiens) (UniProt P14416)
# test details: Beta-Arrestin HTS for Positive Allosteric Modulators of the Human D2 Dopamine Receptor: Potentiators
# measurement setup: DiscoveRx D2 beta-arrestin cells, luminescence, 90 min; stronger effect = higher value; 100% = 57 uM dopamine signal
The campaign covered roughly 360,000 compounds. About 810 (0.23%) were called active. Many of the other results were omitted from the sample, so actives are more common in it than they were.
Property: potentiation; scope: individual molecules
property measured: potentiation

1. COc1ccc(C(=O)C[n+]2ccc(N)c(C)c2C)cc1 :: -3.23% (inactive)
2. CC(Oc1cccc(Cl)c1)C(=O)NC1CC(C)(C)NC(C)(C)C1 (stereo not drawn) :: -22.7% (inactive)
3. CCOc1ccc(CCNC(=O)COC(=O)c2ccc(C)c(S(=O)(=O)N3CCOCC3)c2)cc1OCC :: 1.76% (inactive)
